Test system: 349418-098-R-PDC spheroids, viability, % test/control;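 further: spheroids exposed to compounds for 7 days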
Assay: Anticancer human tumor 349418-098-R-PDC patient-derived lung adenocarcinoma cell line growth inhibition [IpAb]; active means viability on the fitted dose curve at most 10% of control; inactive means the rest
Settings: second compound 0.0316 µM; first compound 3.16 µM; spheroids with HUVEC and MSC
Would you mind answering with one of these outcomes? TRUE (active), FALSE (inactive)

C=CC(=O)N1CCN(c2nc(=O)n(-c3c(C)ccnc3C(C)C)c3nc(-c4c(O)cccc4F)c(F)cc23)C(C)C1 (configuration not stated) + CCN1CCN(Cc2ccc(Nc3ncc(F)c(-c4cc(F)c5nc(C)n(C(C)C)c5c4)n3)nc2)CC1	FALSE
Cn1ncc(Cl)c1-c1cc(C(=O)NC(CN)Cc2cccc(F)c2)sc1Cl (configuration not stated) + CCN1CCN(Cc2ccc(Nc3ncc(F)c(-c4cc(F)c5nc(C)n(C(C)C)c5c4)n3)nc2)CC1	TRUE
Cc1nc(NC(=O)N2CCCC2C(N)=O)sc1-c1ccnc(C(C)(C)C(F)(F)F)c1 (configuration not stated) + CCN1CCN(Cc2ccc(Nc3ncc(F)c(-c4cc(F)c5nc(C)n(C(C)C)c5c4)n3)nc2)CC1	TRUE
CC1(C)CCC(CN2CCN(c3ccc(C(=O)NS(=O)(=O)c4ccc(NCC5CCOCC5)c([N+](=O)[O-])c4)c(Oc4cnc5[nH]ccc5c4)c3)CC2)=C(c2ccc(Cl)cc2)C1 + CCN1CCN(Cc2ccc(Nc3ncc(F)c(-c4cc(F)c5nc(C)n(C(C)C)c5c4)n3)nc2)CC1	FALSE

## Task Called result for CCCS(=O)(=O)Nc1ccc(F)c(C(=O)c2c[nH]c3ncc(-c4ccc(Cl)cc4)cc23)c1F + CCN1CCN(Cc2ccc(Nc3ncc(F)c(-c4cc(F)c5nc(C)n(C(C)C)c5c4)n3)nc2)CC1
## Result FALSE

## Task Called result for C=CCn1c(=O)c2cnc(Nc3ccc(N4CCN(C)CC4)cc3)nc2n1-c1cccc(C(C)(C)O)n1 + CCN1CCN(Cc2ccc(Nc3ncc(F)c(-c4cc(F)c5nc(C)n(C(C)C)c5c4)n3)nc2)CC1
## Result TRUE

## Task Called result for Cn1nccc1Nc1nccc(-c2ccn(C(CO)c3ccc(Cl)c(F)c3)c(=O)c2)n1 (configuration not stated) + CCN1CCN(Cc2ccc(Nc3ncc(F)c(-c4cc(F)c5nc(C)n(C(C)C)c5c4)n3)nc2)CC1
## Result FALSE
